Target: T1R2/T1R3 (Homo sapiens) (UniProt Q8TE23+Q7RTX0)
Assay: Positive allosteric modulation of human TIR2/TIR3 expressed in PEAKrapid cells assessed as potentiation of sucrose-induced intracellular calcium influx by measuring sucrose EC50 at 30 uM measured for 120 secs by fluorescence based assay relative to FEMA4774
Assay type: functional, cell-based
attributeMeasured: Efficacy (%)

Recorded Efficacy, per entry:
>>> obsvalue("CC(C)CC(=O)NC(C)(C)CC(=O)Nc1cncc(C(=O)O)c1N")
60
>>> obsvalue("CC(C)(CC(=O)Nc1cncc(C(=O)O)c1N)NC(=O)[C@@H]1CCC[C@H](N)C1")
57
>>> obsvalue("CC(C)C[C@H](NC(=O)[C@@H](N)C1CCCCC1)C(=O)NC(C)(C)CC(=O)Nc1cncc(C(=O)O)c1N")
77
>>> obsvalue("CC(C)(CC(=O)Nc1cncc(C(=O)O)c1N)NC(=O)C[C@@H]1CCNC1")
56
>>> obsvalue("CC(C)(CC(=O)Nc1cncc(C(=O)O)c1N)NC(=O)[C@H]1CC[C@H](N)CC1")
55
>>> obsvalue("CC(C)(CC(=O)Nc1cncc(C(=O)O)c1N)NC(=O)[C@H](N)C1CCCCC1")
59

a. CC(C)(CC(=O)Nc1cncc(C(=O)O)c1N)NC(=O)c1cccc2c1CCCC2
b. CCCCCCCCCCCC(=O)NC(C)(C)CC(=O)Nc1cncc(C(=O)O)c1N
Please compare: a and b . Report which one has the smaller Efficacy value. State your choice using its label.
b

Data credit: ChEMBL document CHEMBL4627289
